Source: patent EP2742955A1

assay: Plasma Fpx concentration (anti-FXa assay) after oral and intravenous administration of aqueous nanoparticulate suspensions; type: in vivo, male Sprague-Dawley rats; settings: male, Sprague-Dawley, rat, plasma, 200 ug/kg; intravenous, 200 µg/kg (eq. Fpx), rats n=3; read-out: maximum plasma concentration (Cmax)
Quantity Measured: Cmax
Remember to follow the number with its unit.

Please report the recorded Cmax for CO[C@H]1O[C@H](COS(=O)(=O)O)[C@@H](O[C@@H]2O[C@@H](C(=O)O)[C@@H](O[C@H]3O[C@H](COS(=O)(=O)O)[C@@H](O[C@@H]4O[C@H](C(=O)O)[C@@H](O[C@H]5O[C@H](COS(=O)(=O)O)[C@@H](O)[C@H](O)[C@H]5NS(=O)(=O)O)[C@H](O)[C@H]4O)[C@H](OS(=O)(=O)O)[C@H]3NS(=O)(=O)O)[C@H](O)[C@H]2OS(=O)(=O)O)[C@H](O)[C@H]1NS(=O)(=O)O .
160 ng/mL
